assay.protocol: compound binding in COS7 lysate, probe aLAP1, primary screen, cell lysate, small-molecule microarray (AID 1124);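 note: lysate comes from COS7 cells expressing LAP1 and is applied at 0.3 µg/mL; score merges spot fluorescence near 667 nm with signal-to-noise over triplicate slides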
measurement.context: probe aLAP1, fluorescence, higher = more signal
readout.type: composite z-score
Kindly provide the number alone.

Please fill in: composite z-score reported for `CC(C)[C@@H](OCc1ccccc1)[C@H](C)CON=C1[C@H]2CCn3c(=O)n(-c4ccccc4)c(=O)n3[C@H]2[C@H](O)[C@@H]2O[C@H]12` = -0.219

Further cases:
Please fill in: composite z-score reported for `COC(=O)CC=C[C@@H](C)[C@@H](C=NOC[C@@H](O)[C@H]1O[C@@H]2OC(C)(C)O[C@@H]2[C@H]1O)OC` = 0.149

Please fill in: composite z-score reported for `CCc1cc2c(nc1CC)CCN(CCC(C)=NOCC[C@@H]1C=C[C@H](OC(C)=O)[C@@H](COC(C)=O)O1)C2` = 0.277

Please fill in: composite z-score reported for CCN1C(=O)[C@H]2[C@H]3[C@H](O)[C@H](O)CC(=NOC(C)CN4CCCc5nc(C)c(C)cc54)[C@@H]3CC[C@H]2C1=O (some centres not stated) = 0.284

Please fill in: composite z-score reported for `CC(C)=NO[C@@H](C)c1cn([C@H](CO)Cc2ccccc2)nn1` = 0.224

Please fill in: composite z-score reported for `O=C1[C@H]2[C@H]3[C@H](O)[C@H](O)CC(=NO[C@@H]4O[C@H](CO)[C@@H](O)[C@H](O)[C@H]4O)[C@@H]3CC[C@H]2C(=O)N1c1cccc(Oc2ccccc2)c1` = 0.106

Please fill in: composite z-score reported for CCOC(=O)[C@H](CC(C)C)NC(=O)CCC1CC(OC(=O)NCCc2ccc(F)cc2)CC2(CCCC(COC(=O)NCc3cccc4ccccc34)O2)O1 (some centres not stated) = -0.138

====

System: XIP peptide (Xip251-270) binding
assay.protocol: small-molecule binders of XIP peptide, primary screen, biochemical, small-molecule microarray, fluorescence 635/667 nm, 0.1 µg/mL protein (AID 1182)
measurement.context: fluorescent protein binding, 635 nm, higher = more signal, called active from +8 up or from −8 down
A collection of molecules and their measured composite z-score
Kindly provide the number alone.

Consider the worked cases shown below.
Please fill in: composite z-score reported for `C[C@@H](c1ccccc1)N1C(=O)[C@H]2[C@H]3[C@H](O)[C@H](O)CC(=NOC[C@@H](O)COCc4ccco4)[C@H]3CC[C@H]2C1=O` = 0.15

Please fill in: composite z-score reported for `C=C(C)C(=O)OC[C@H]1CN2[C@@H](CC[C@@H](C)[C@@H]2c2ccc(Br)cc2)C(=O)O1` = 0.414

Please fill in: composite z-score reported for `O=C1[C@H]2[C@H]3[C@H](O)[C@H](O)CC(=NOCc4ccccc4)[C@@H]3CC[C@H]2C(=O)N1c1cccc(Oc2ccccc2)c1` = 0.811

Please fill in: composite z-score reported for `CC(CCN1CCc2nc(-c3ccccc3)c(-c3ccccc3)cc2C1)=NO[C@H](C)c1cn([C@H](CO)Cc2ccccc2)nn1` = 0.899

Please fill in: composite z-score reported for `CC1(C)O[C@H]2O[C@H]([C@H](O)CON=C3[C@H]4CCn5c(=O)n(-c6ccccc6)c(=O)n5[C@H]4[C@H](O)[C@@H]4O[C@H]34)[C@H](O)[C@H]2O1` = 0.469

Further cases:
Please fill in: composite z-score reported for COC(=O)[C@H](C)NC(=O)CCC1CC(OC(=O)NCCc2ccc(F)cc2)CC2(CCCC(COC(=O)NCCOc3ccccc3)O2)O1 (some centres not stated) = 2.99

Please fill in: composite z-score reported for `C#CCCCON=C1[C@H]2CCn3c(=O)n(Cc4cc5c(cc4Cl)OCO5)c(=O)n3[C@H]2[C@H](O)[C@@H]2O[C@H]12` = -0.18

====

tested.system: Homeobox protein Hox-A13 (Mus musculus)
assay.protocol: inhibitors of HoxA13-DNA binding, primary screen, biochemical, fluorescence polarization, labeled oligonucleotide (AID 1185)
measurement.context: 15 min, higher = more signal, called active from +8 up or from −8 down
Quick rule for you: z-score at -0.3 or higher means criterion met, lower means criterion not met.

Exercise: Could you verify whether the entry `C[C@H]1CC[C@@H](C(=O)O)N[C@@H]1c1cccc(N2CCCC2=O)c1` shows z-score of no less than -0.3?
Key: criterion met

Exercise: Could you verify whether the entry C[C@@H]1CC[C@H]2C(=O)OC(Cc3ccccc3)CN2[C@H]1c1ccc(Br)cc1 (stereo partly specified) shows z-score of no less than -0.3?
Key: criterion not met

Further cases:
Exercise: Could you verify whether the entry `COc1ccc(COC(=O)NN=C2C[C@@H](O)[C@@H](O)[C@@H]3[C@@H]4C(=O)N([C@@H](C)c5ccccc5)C(=O)[C@@H]4CC[C@@H]23)cc1` shows z-score of no less than -0.3?
Key: criterion not met

Exercise: Could you verify whether the entry `COC(=O)[C@H](CCSC)NC(=O)CC=C[C@@H](C)CO` shows z-score of no less than -0.3?
Key: criterion met

Exercise: Could you verify whether the entry `C[C@@H]1C=CCC(=O)OC[C@H](C)C(=O)N[C@@H](Cc2ccccc2)C(=O)OC1` shows z-score of no less than -0.3?
Key: criterion met

Exercise: Could you verify whether the entry `CCc1cc2c(nc1CC)CCN(CCC(C)=NOC[C@@H](C)[C@H](OCc1ccccc1)C(C)C)C2` shows z-score of no less than -0.3?
Key: criterion not met

Exercise: Could you verify whether the entry `COC(=O)[C@@H]1CC[C@H](C)[C@@H](c2ccc(C)cc2)N1C(=O)c1ccc(C=NOC[C@H]2O[C@H](c3ccccc3)C=C[C@@H]2Oc2ccc(OC)cc2)cc1` shows z-score of no less than -0.3?
Key: criterion met

Exercise: Could you verify whether the entry `COc1ccc(O[C@H]2C=C[C@@H](c3ccccc3)O[C@@H]2COC(=O)NCc2cccc3ccccc23)cc1` shows z-score of no less than -0.3?
Key: criterion met

Exercise: Could you verify whether the entry `COc1ccc(COC(=O)NN=C2C[C@@H](O)[C@@H](O)[C@@H]3[C@@H]4C(=O)N(C[C@@H]5CCCO5)C(=O)[C@@H]4CC[C@@H]23)cc1` shows z-score of no less than -0.3?
Key: criterion met

Exercise: Could you verify whether the entry CCOC(=O)[C@H](CC(C)C)NC(=O)CCC1CC(OC(=O)NCc2ccc3c(c2)OCO3)CC2(CCCC(COC(=O)NCCOC)O2)O1 (stereo partly specified) shows z-score of no less than -0.3?
Key: criterion not met

Exercise: Could you verify whether the entry `CCc1cc2c(nc1CC)CCN(CCC(C)=NO[C@@H]1O[C@H](COC(C)=O)[C@@H](OC(C)=O)[C@H](OC(C)=O)[C@H]1OC(C)=O)C2` shows z-score of no less than -0.3?
Key: criterion not met

Exercise: Could you verify whether the entry `CO[C@@H]1COC(=O)CC=C[C@H](C)[C@H](OC)COC(=O)[C@@H]2CCCN2C(=O)CC=C[C@H]1C` shows z-score of no less than -0.3?
Key: criterion not met

Exercise: Could you verify whether the entry CCOC(=O)[C@H](Cc1ccccc1)NC(=O)CCC1CC(OC(=O)NCCc2ccc(F)cc2)CC2(CCCC(COC(=O)NCc3cccc(C(F)(F)F)c3)O2)O1 (stereo partly specified) shows z-score of no less than -0.3?
Key: criterion not met

Exercise: Could you verify whether the entry `CC(=O)OC[C@H]1O[C@H](CC=NO[C@@H](C)c2cc(-c3c(C)cc(C)cc3C)no2)C=C[C@@H]1OC(C)=O` shows z-score of no less than -0.3?
Key: criterion not met

Exercise: Could you verify whether the entry `COc1ccc(O[C@H]2C=C[C@@H](C#Cc3ccccc3)O[C@@H]2CO)cc1` shows z-score of no less than -0.3?
Key: criterion not met

====

assay.protocol: A549 lung cancer cell viability effects, profiling panel, resazurin fluorescence, 24 h, PK04 Diversity Set (AID 1171)
measurement.context: higher = more signal, called active from +8 up or from −8 down
Quick rule for you: z-score at -0.3 or higher means met, lower means not met.

Exercise: Could you verify whether the entry COC(=O)[C@H](C)NC(=O)CCC1CC(OC(=O)NCc2ccc3c(c2)OCO3)CC2(CCCC(COC(=O)NCCCN3CCCC3=O)O2)O1 (some centres not stated) shows z-score of no less than -0.3?
Key: met

Exercise: Could you verify whether the entry `COC(=O)[C@H](C)NC(=O)CC=C[C@@H](C)[C@@H]1C=C[C@H](O)[C@@H](CO)O1` shows z-score of no less than -0.3?
Key: not met

Exercise: Could you verify whether the entry `C=CC[C@@H]1C=C[C@H](ON=C2C[C@@H](O)[C@@H](O)[C@@H]3[C@@H]4C(=O)N(CC)C(=O)[C@@H]4CC[C@@H]23)[C@@H](CO)O1` shows z-score of no less than -0.3?
Key: met

Exercise: Could you verify whether the entry `COc1ccc(COC(=O)NN=C2C[C@@H](O)[C@@H](O)[C@@H]3[C@@H]4C(=O)N(Cc5ccc6c(c5)OCO6)C(=O)[C@@H]4CC[C@H]23)cc1` shows z-score of no less than -0.3?
Key: met

Further cases:
Exercise: Could you verify whether the entry `CON=C(C)CCN1CCc2nc(-c3ccccc3)c(-c3ccccc3)cc2C1` shows z-score of no less than -0.3?
Key: met

Exercise: Could you verify whether the entry `C[C@H]1CC[C@@H](C(=O)O)N[C@@H]1c1ccc(C#Cc2ccccc2)cc1` shows z-score of no less than -0.3?
Key: not met

Exercise: Could you verify whether the entry COC(=O)[C@H](C)NC(=O)CCC1CC(OC(=O)NCc2cccc3ccccc23)CC2(CCCC(COC(=O)NCCc3ccccc3OC)O2)O1 (some centres not stated) shows z-score of no less than -0.3?
Key: met
